System: Noggin (protein binding on small-molecule microarray)
TEST_DETAILS: small molecules binding Noggin protein – biochemical, 635/667 nm fluorescence, primary screen (AID 1095);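 further: score merges 667 nm feature fluorescence with signal to noise over triplicate slides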
EXPERIMENTAL_SETUP: 635 nm fluorescence, higher = more signal
OBSERVATION_TYPE: composite z-score
Please give the numeric answer without any surrounding text.

MOLECULE | composite z-score
C=CCN1C(=O)[C@@]2(O[C@@H](CCn3cc([C@H](O)c4ccccc4)nn3)[C@H]([Si](C)(C)c3ccc(OC)cc3)[C@H]2C)c2cc(N3C(=O)c4cccc5cccc3c45)ccc21 | -0.684
O=C1OCCC=C[C@H]2OC34C=CCN(c5ccc6ccccc6c5)C(=O)[C@H]3N(CCO)C(=O)[C@@H]4C12 (some centres not stated) | -0.251
CC(C)NC(=O)[C@@H]1c2ccccc2C(=O)N(Cc2ccccc2C(F)(F)F)[C@H]1c1ccc(CO)cc1 | -0.238
C=CCNC(=O)[C@H]1[C@@H]2C(=O)O[C@@H](c3ccccc3)[C@@H](c3ccccc3)N2[C@@H](c2ccc(OCCO)cc2)[C@]12C(=O)Nc1ccc(C#CC3(O)CCCCCC3)cc12 | 1.4
CC=CC(O)C1C=CC2C(=O)NC(=O)C2N1Nc1ccc(Cl)cc1Cl (configuration not stated) | -0.376

Per the records, this molecule ( CCN(CC)c1ccc(N2CC=CC34O[C@@H]5C=CCCOC(=O)C5[C@H]3C(=O)N(C(C)CO)[C@@H]4C2=O)cc1 (some centres not stated) ) has composite z-score equal to 0.524

Per the records, this molecule ( "COCCCNC(=O)[C@@]1(Sc2ccc(C)cc2)CC(=O)N(Cc2ccccc2C(F)(F)F)[C@@H]1c1ccc(CO)cc1I" ) has composite z-score equal to -2.51
